Target: CETP (Homo sapiens, UniProt P11597)
Sequence (P11597 18-493): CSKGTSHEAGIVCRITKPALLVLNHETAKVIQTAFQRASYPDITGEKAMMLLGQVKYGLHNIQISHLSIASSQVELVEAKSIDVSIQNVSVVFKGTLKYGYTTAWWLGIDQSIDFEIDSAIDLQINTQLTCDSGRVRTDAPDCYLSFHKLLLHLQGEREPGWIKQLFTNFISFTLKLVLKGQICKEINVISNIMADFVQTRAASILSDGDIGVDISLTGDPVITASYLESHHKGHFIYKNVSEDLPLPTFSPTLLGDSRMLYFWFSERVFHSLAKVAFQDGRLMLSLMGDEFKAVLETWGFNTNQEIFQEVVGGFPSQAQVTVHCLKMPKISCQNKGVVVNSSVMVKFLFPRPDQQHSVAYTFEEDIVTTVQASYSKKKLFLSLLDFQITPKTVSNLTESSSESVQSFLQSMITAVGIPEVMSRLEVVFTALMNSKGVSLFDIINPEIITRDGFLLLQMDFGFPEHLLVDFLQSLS
Assay: In vitro CETP activity inhibitory effect in whole plasma
Conditions: plasma from healthy subjects containing [3H]CE-HDL3, incubated 4 hours at 37° C.; read-out: CETP activity inhibition in whole plasma IC50
quantity: IC50 (µM)

>>> resultvalue("CC(C)CCC1(C(=O)Nc2cc(Cl)c(Cl)cc2SC(=O)C(C)(C)C)CCCC1")
16
>>> resultvalue("CSCC[C@H](NC(C)=O)C(=O)Sc1ccccc1NC(=O)C1(CCC(C)C)CCCCC1")
7
>>> resultvalue("CC1(C(=O)Nc2ccccc2SC(=O)Cc2ccc(-c3ccccc3)cc2)CCCCC1")
22
>>> resultvalue("CC1(C(=O)Nc2ccccc2SC(=O)[C@H](NC(=O)C2(C)CCCCC2)c2ccccc2)CCCCC1")
26
>>> resultvalue("CC(C)CCC1(C(=O)Nc2cc(Cl)c(Cl)cc2SC(=O)CN(C)C)CCCCC1")
5
>>> resultvalue("CC1(C(=O)Nc2ccccc2SC(=O)c2cccnc2)CCCCC1")
21
>>> resultvalue("CC(C)CCC1(C(=O)Nc2ccccc2SC(=O)CCl)CCCCC1")
16
>>> resultvalue("CC(C)CCC1(C(=O)Nc2cc(Cl)c(Cl)cc2SSc2cc(Cl)c(Cl)cc2NC(=O)C2(CCC(C)C)CCCCC2)CCCCC1")
7
